Collected EC50 values appear next to each entry.
Molecular target: Integrin alpha-4 (Homo sapiens, UniProt P13612)
Sequence (P13612 whole entry): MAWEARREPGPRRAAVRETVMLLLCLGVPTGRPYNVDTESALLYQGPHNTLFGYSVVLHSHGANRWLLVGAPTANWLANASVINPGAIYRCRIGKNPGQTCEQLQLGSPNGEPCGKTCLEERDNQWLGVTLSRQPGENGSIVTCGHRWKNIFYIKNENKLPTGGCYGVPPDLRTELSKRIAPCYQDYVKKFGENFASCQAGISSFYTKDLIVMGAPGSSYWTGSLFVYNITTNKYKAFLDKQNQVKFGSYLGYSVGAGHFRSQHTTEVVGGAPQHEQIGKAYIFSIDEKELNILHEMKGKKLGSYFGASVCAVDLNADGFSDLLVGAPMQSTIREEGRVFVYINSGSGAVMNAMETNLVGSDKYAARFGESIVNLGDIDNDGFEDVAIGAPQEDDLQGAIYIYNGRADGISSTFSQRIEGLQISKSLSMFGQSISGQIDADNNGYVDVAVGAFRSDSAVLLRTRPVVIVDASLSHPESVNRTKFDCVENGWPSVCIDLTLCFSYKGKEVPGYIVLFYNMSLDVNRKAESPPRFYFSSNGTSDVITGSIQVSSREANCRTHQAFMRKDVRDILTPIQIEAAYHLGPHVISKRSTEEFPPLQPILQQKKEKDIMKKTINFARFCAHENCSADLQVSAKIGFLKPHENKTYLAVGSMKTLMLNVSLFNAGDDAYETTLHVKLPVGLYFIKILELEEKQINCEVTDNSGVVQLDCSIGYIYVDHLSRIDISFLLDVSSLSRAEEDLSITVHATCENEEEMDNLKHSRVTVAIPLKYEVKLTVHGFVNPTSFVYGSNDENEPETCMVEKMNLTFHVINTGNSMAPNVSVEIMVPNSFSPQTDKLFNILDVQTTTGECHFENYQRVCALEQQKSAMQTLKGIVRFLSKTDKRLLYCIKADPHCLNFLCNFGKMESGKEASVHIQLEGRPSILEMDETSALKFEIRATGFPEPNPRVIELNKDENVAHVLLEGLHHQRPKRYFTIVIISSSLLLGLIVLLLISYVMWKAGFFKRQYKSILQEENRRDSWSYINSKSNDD
Experiment: VLA-4 allosteric modulator potency, dose response, cell-based, U937, HUTS-21 LIBS antibody, flow cytometry (AID 449766)
Conditions: inactive by the depositor's call
result_type: EC50

In [3]: df
Out[3]:
                            compound_smiles   result
0  COc1cccc(-c2sc3ccc(OC)cc3c2-c2ccc(OCCN(C)C)cc2)c1  0.22 µM
1  COc1cccc(-c2sc3ccccc3c2-c2ccc(OCCN3CCCCC3)cc2)c1  5.46 µM
2  FC(F)(F)c1nnc(-c2ccccc2)nc1Sc1ccc(Cl)cc1  0.73 µM
3  CC1(C)C[C@H]2C=C(C=O)[C@]3(C=O)C[C@]3(C)[C@H]2C1  3.15 µM

* * *

Target: Integrin alpha-4 (Homo sapiens)
Sequence (P13612 whole entry): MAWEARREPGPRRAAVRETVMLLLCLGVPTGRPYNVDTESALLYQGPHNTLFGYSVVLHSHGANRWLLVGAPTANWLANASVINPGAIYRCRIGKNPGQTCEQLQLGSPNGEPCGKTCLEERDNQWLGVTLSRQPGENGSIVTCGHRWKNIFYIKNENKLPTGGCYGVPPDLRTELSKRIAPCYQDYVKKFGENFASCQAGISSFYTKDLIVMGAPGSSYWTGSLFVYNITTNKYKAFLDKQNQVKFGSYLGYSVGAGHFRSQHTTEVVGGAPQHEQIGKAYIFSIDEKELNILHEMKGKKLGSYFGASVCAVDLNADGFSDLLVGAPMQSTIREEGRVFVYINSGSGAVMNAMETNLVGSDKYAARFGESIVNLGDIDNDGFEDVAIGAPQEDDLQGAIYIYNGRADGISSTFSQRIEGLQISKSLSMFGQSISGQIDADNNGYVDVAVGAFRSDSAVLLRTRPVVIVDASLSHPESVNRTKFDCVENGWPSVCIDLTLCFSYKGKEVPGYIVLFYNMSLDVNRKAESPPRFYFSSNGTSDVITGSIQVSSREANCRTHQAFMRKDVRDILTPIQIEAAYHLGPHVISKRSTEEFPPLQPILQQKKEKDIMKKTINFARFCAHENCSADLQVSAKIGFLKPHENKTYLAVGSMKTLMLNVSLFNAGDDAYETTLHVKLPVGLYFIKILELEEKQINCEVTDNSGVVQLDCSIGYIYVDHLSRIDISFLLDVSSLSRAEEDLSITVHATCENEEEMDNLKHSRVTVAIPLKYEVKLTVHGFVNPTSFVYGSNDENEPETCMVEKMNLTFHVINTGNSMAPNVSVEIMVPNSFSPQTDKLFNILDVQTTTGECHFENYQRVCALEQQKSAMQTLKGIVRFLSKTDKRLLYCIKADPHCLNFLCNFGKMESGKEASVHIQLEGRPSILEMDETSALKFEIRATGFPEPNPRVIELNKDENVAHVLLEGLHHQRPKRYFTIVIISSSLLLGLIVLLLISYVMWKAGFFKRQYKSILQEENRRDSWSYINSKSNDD
Assay: VLA-4 allosteric modulator potency, dose response, cell-based, U937, HUTS-21 LIBS antibody, flow cytometry (AID 449766)
pEC50: −log10 of the molar value.
Binary call on pEC50: fulfilled from 5 upward, not fulfilled beneath that.

compound	label_class
C=C(C=O)C[C@@H]1C[C@H](O)C2OC3C[C@]4(C)OC5/C=C\CC6OC7C(CC=CCC6OC5CCCC4OC3CC2O1)OC1CC2OC3CC(=O)OC3C[C@@H](C)C[C@@]2(C)OC1C[C@@H]7C (stereo partly drawn)	fulfilled
c1ccc(-c2sc3ccccc3c2-c2ccc(OCCN3CCCC3)cc2)cc1	not fulfilled
C[S+]([O-])c1nc(-c2ccc(Br)cc2)cc(-c2ccccc2)c1C#N (stereo not drawn)	fulfilled
O=C(COc1ccc(C=NNC(=O)c2cc3ccccc3o2)cc1Cl)Nc1ccccc1	not fulfilled
CCOCCCNC(=O)/C(C#N)=C/c1ccc(Cl)c([N+](=O)[O-])c1	fulfilled
COc1cccc(-c2sc3ccccc3c2-c2ccc(OCCN3CCCC3)cc2)c1	not fulfilled
COc1ccc(C(=O)c2cc([N+](=O)[O-])ccc2N2CCOCC2)cc1	not fulfilled
COC(=O)C1CN(C#N)N(c2ccc(Cl)cc2)C12c1ccccc1-c1ccccc12 (stereo not drawn)	fulfilled

These entries and their values trace back to BindingDB's records for doi:10.7270/Q2ZG6QP2.
